// data source = the supplement of paper PMC10567573

Kindly state protein stability index for each of the entries shown.
B1: STK38L (parent)
chain: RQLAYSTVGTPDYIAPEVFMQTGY

variants of: B1; assay: protein stability index of a GFP-peptide fusion (GPS, HEK-293T) (PSI 1-6); higher = more stable; details: c terminus: a fixed tail appended;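 also: lentivirally expressed fusions sorted by FACS into six bins by GFP to DsRed ratio, PSI derived from sequencing read proportions per bin multiplied by bin number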
One number for each entry.

Check out these entries, answers already filled in.
(Q) Give its protein stability index value. Item: A15H
(A) 2.1

(Q) Give its protein stability index value. Item: Q2V
(A) 1.46

(Q) Give its protein stability index value. Item: D12Y
(A) 1.82

(Q) Give its protein stability index value. Item: T22I
(A) 2.39

(Q) Give its protein stability index value. Item: M20F
(A) 2.06

(Q) Give its protein stability index value. Item: Y13C
(A) 3

(Q) Give its protein stability index value. Item: G23N
(A) 2.57

(Q) Give its protein stability index value. Item: G23K
(A) 2.59

Count: 5. Required value per item: protein stability index.
1. A15Q
2. P16R
3. A4F
4. P11H
5. T10H

(A)
1: 3.4; 2: 2.12; 3: 1.89; 4: 2.58; 5: 2.36
